# Tested on: UACC-62 melanoma
# TEST_PROTOCOL: NCI tumour cell line growth inhibition, 48 h; in the data active = GI50 below about 0.43 µM; inactive = the rest
Classes to choose from: active, inactive

Exercise: Given `COc1cc(Cl)cc(-c2nn(C(=O)NCCN3CCOCC3)cc2-c2ccncc2)c1` , state the outcome it received in this test.
Solution: inactive

Exercise: Recorded call for `CC(C)(C)C#CC1=C(Br)C(=O)OC1` ?
Solution: inactive

Exercise: Per the assay record, what outcome was assigned to `COc1ccc2c(c1)O/C(=C\c1cccc(OCC(=O)Nc3nc4c(s3)CCCC4)c1)C2=O` ?
Solution: inactive

Exercise: How did this test come out for `CN1CCN(CCc2cccc(C(=O)c3cnn(-c4ccc(F)cc4)c3N)c2)CC1` ?
Solution: inactive

Exercise: How did this test come out for Nc1c(C(=O)Nc2cccc([N+](=O)[O-])c2)sc2nc3c(cc12)C(O)CCC3 (stereo not given) ?
Solution: inactive

Exercise: Recorded call for `O=C1c2ccccc2-c2c1c1ccccc1c(=O)n2CCCNCCCNCCCn1c2c(c3ccccc3c1=O)C(=O)c1ccccc1-2` ?
Solution: active

Exercise: Hi, do you know how `Cc1ccc(/C=C2\CN(C(=O)OC(C)(C)C)C/C(=C\c3ccc(C)cc3)C2=O)cc1` came out in this test?
Solution: active

Exercise: Name the outcome recorded for `CCCCN1CCN(c2ccc3nc(-c4ccc5nc(-c6ccc(C(F)(F)F)cc6)[nH]c5c4)[nH]c3c2)CC1` in the assay.
Solution: inactive

Exercise: Outcome logged for `Cc1ccc2c(ccc3c[n+]4c5ccccc5ccc4n32)c1` in this assay:
Solution: inactive

Exercise: What call does the record list for CC/C=C\C=C/C(=O)N/C=C/CC1Cc2cccc(O)c2C(=O)O1 (stereo not given) ?
Solution: inactive

Exercise: Record lookup: outcome of this test for `Nc1cc2cccc[n+]2c2cc(Cl)ccc12` ?
Solution: inactive

Exercise: How was COc1cc(C2c3cc4c(cc3[C@@H](Nc3ccc(C#N)cc3)C3COC(=O)[C@H]23)OCO4)cc(OC)c1O (stereo not given in full) classified in this test?
Solution: inactive

Exercise: Please state the recorded outcome for this molecule: C=C1C(O)C2(O)OCC34C(CC5C(C)=CC(=O)C(O)C5(C)C23)OC(=O)C(OC(=O)C/C=C(\C)CCCCC)C14 (stereo not given)
Solution: active

Exercise: Hi team, can someone confirm the assay call for `Nc1ccn(Cc2ccc(C34CC5CC(CC(C5)C3)C4)c(O)c2)c(=O)n1` ?
Solution: inactive

Exercise: Field: outcome | Entry: `O=CNc1c(Cl)cc2c(c1Cl)Cc1cc([N+](=O)[O-])ccc1-2`
Solution: inactive

All figures here come from PubChem BioAssay (NCI).
